system_under_test: VPAC1R (Homo sapiens)
Construct: An HA signal peptide was inserted in place of the native signal peptide of the receptors; HA signal peptide (replaces the native signal peptide) (N); 3C protease cleavage sites (between FLAG and receptor, and between receptor and His) (internal); expressed in transfected cells; host or cells: COS-7 (transient, PEI)
Sequence (P32241 31-457): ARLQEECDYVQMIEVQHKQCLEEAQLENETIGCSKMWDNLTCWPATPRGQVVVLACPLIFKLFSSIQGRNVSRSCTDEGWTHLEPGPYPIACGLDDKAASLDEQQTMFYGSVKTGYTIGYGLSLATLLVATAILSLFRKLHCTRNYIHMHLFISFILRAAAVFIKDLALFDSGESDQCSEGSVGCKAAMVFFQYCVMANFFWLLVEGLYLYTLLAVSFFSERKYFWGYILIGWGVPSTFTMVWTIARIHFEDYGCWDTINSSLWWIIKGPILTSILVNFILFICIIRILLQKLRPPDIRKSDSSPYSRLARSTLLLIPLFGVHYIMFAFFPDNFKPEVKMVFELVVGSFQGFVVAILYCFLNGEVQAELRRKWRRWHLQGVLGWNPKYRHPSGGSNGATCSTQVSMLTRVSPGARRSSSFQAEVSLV
method_summary: cAMP accumulation, chimeric peptides (Fig. 5a)
Assay type: cell-based
condition_description: pEC50, VPAC1R cAMP, COS-7; three-parameter logistic; replicate n=5
No end group written: not given here.
assay_endpoint: EC50 (nM)
Give bare numbers, in nM.

Problem: Using the record for HSDGVFTDNYTRLRKQMAVKKYLNSILN-NH2 [Gly4 VIP] , state its measured EC50.
Result: 1.39
